test: In vivo pharmacokinetics, mice with AMC711T xenografts; set-up: species or system NMRI nu/nu mice; details: NMRI nu/nu, mouse, tumour, ip, 15 mg/kg
Property Measured: half-life

Report half-life for O=C(NC1CCNCC1)c1n[nH]cc1NC(=O)c1c(Cl)cccc1Cl
~1.8 h

* * *

test: In vivo pharmacokinetics, mice with AMC711T xenografts; parameters: species or system NMRI nu/nu mice; settings: NMRI nu/nu, mouse, plasma, ip, 5 mg/kg
Property Measured: Cmax (ng/mL)
Give your result in ng/mL as a bare value.

Report Cmax for O=C(NC1CCNCC1)c1n[nH]cc1NC(=O)c1c(Cl)cccc1Cl
1890

* * *

assay: In vivo pharmacokinetics, mice with AMC711T xenografts; parameters: species or system NMRI nu/nu mice; conditions: NMRI nu/nu, mouse, plasma, ip, 15 mg/kg
Property Measured: Tmax

Report Tmax for O=C(NC1CCNCC1)c1n[nH]cc1NC(=O)c1c(Cl)cccc1Cl
< 7 min

* * *

assay: In vivo pharmacokinetics, mice with AMC711T xenografts; design: species or system NMRI nu/nu mice; settings: NMRI nu/nu, mouse, plasma, ip, 5 mg/kg
Property Measured: AUC(0-inf) (ng·h/mL)
Give your result in ng·h/mL as a bare value.

Report AUC(0-inf) for O=C(NC1CCNCC1)c1n[nH]cc1NC(=O)c1c(Cl)cccc1Cl [AT7519]
1630

* * *

assay: In vivo pharmacokinetics, mice with AMC711T xenografts; parameters: species or system NMRI nu/nu mice; details: NMRI nu/nu, mouse, plasma, ip, 5 mg/kg
Property Measured: half-life (h)
Give your result in h as a bare value.

Report half-life for O=C(NC1CCNCC1)c1n[nH]cc1NC(=O)c1c(Cl)cccc1Cl
1.6
